Cited source for all entries: the supplement of paper PMC9112550

Tested on: Escherichia coli TOP10;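 also: peptides expressed intracellularly from a pBAD plasmid library in pooled LB shake-flask culture, induced with 0.3% L-arabinose, DNA abundance read by NGS, three biological replicates, DESeq2 with apeglm shrinkage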
Experiment: shrunken log2 fold change of peptide-encoding DNA abundance (4.5 h post-induction vs induction); higher = less antimicrobial activity (less host growth inhibition)
Conditions: time post-induction: 4.5 h; library: site-saturation at positions 5, 18, 19, 20
The sequences listed here are annotated with their shrunken log2 fold change.
// no unit, no text: just the number

# example entries with known answers
RRIRPRPPRLPRPRPRPRCNPRP : -0.0415
RRIRKRPPRLPRPRPRPQECPRP : -0.00957
RRIRNRPPRLPRPRPRPWYSPRP : -2.32
RRIRLRPPRLPRPRPRPEAAPRP : 0.732
RRIRVRPPRLPRPRPRPMMQPRP : 0.0134
RRIRVRPPRLPRPRPRPQGGPRP : -0.0824
RRIRYRPPRLPRPRPRPQGEPRP : -0.325
RRIRARPPRLPRPRPRPFAEPRP : 0.762

q: Fill in the recorded shrunken log2 fold change for this sequence, with Escherichia coli TOP10 as test system: RRIRHRPPRLPRPRPRPRIWPRP
a: 0.242

q: Can you check RRIRVRPPRLPRPRPRPRGSPRP next?
a: 0.527

q: And then RRIRIRPPRLPRPRPRPNQPPRP , what is it?
a: -0.0903

q: Thanks! And RRIRYRPPRLPRPRPRPQYKPRP ?
a: -0.179

q: And RRIRERPPRLPRPRPRPHMGPRP ?
a: -0.00822

q: Next: RRIRCRPPRLPRPRPRPTMFPRP
a: -0.2

q: Next up: RRIRCRPPRLPRPRPRPWRGPRP
a: 0.185
